These data points were gathered from the supplement of paper PMC12632987.

# Tested system: T1, USP38, Q8NB14
# T1 chain: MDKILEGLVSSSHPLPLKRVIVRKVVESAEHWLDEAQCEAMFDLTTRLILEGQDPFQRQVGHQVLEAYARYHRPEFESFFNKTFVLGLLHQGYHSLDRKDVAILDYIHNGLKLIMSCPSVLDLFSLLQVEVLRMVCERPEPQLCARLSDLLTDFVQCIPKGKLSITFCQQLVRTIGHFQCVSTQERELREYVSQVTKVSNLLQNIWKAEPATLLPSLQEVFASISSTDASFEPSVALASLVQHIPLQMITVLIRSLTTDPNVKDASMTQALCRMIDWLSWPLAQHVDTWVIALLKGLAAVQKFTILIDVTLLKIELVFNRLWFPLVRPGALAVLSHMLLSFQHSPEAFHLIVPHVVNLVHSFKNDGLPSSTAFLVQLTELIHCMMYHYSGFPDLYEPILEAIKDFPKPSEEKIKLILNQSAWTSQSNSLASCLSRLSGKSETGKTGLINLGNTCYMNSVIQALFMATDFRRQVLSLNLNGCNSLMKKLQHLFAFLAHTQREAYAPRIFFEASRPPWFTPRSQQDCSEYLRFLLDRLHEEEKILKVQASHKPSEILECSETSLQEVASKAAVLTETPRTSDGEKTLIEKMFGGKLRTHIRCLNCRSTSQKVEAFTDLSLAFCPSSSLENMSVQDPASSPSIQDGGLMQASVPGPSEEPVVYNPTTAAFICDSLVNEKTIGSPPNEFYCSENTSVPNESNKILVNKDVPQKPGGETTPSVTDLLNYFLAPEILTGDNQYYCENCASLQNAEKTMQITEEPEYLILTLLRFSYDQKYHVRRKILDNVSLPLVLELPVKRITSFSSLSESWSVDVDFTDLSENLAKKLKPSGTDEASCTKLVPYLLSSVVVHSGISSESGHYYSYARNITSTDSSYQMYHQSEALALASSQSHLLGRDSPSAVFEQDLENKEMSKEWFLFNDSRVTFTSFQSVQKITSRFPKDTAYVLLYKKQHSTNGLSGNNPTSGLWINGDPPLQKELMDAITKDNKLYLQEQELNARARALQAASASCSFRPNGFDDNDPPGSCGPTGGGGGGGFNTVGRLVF
# Experiment: median log2 fold change of GCK-ALFA target abundance (FLAG IP / Myc IP barcode read proportion) (log2 ratio); each designed protein is fused to an ALFA-tag nanobody in HEK293 cells to bring the named protein to FLAG-tagged glucokinase (GCK); Myc marks an untargeted standard; higher = target protein stabilised (more abundant)
# Condition: target protein: 3xFLAG-MCP-GCK-ALFA reporter; HEK293 landing pad (RPLP)
Property label: median log2 fold change
Number only, please.

Could you share which median log2 fold change value was measured for usp_38_diff_out_18_14_347 (protein) EEELAEQLKSNFESLTKEVEENTKRTKKIIEKLKDDKESAISLLETRIQALDGVITYAKEEKKEAEEKGFEELKAAAEKLIDAATKAKEELEKLLKELKK ? 0.152

Could you share which median log2 fold change value was measured for usp_38_diff_out_3_65_542 (protein) KVEELLKKAEEKLKEAREKIRELRERVETDPELTEEEIVEMLDEAADLLVEAGEYIREAKKLNPDEEAKKKIKELEKELEELIDEYVEAGERAFLAYGER ? 0.499

Could you share which median log2 fold change value was measured for usp_38_diff_out_3_124_514 (protein) SRAEALFAKLKELLAKAEELIKKAEEELDKNLEELKKLLEELDKVMDEASRVFMELHELAAEDPAHRPLLKEARAASNKVVTRYTEVVLKALERLAEAEE ? -0.179

Could you share which median log2 fold change value was measured for usp_38_diff_out_14_2_89 (protein) GEEELEKKTKETLEKLEELIELAKKIKEEVEKDPSKAEELRKELFKKWDEVGEKVGELAKLIEEHKELPELNKKAVKEVNEKLSEATKEILEALELLAEA ? -0.37
